System: HepG2
Measurement Protocol: Antiproliferative activity against human HepG2 cells after 72 hrs by MTT assay
Format: functional, cell-based
Stated Conditions: HepG2, 72 h
Please respond with reported pIC50 for every item in the list.
Schema: pIC50 number; meaning minus log10 of the concentration expressed in molar units.

If you can, please state the reported pIC50 value of Cc1coc2c3ccc4c(c3c3[nH]c(-c5ccccc5O)nc3c12)CCCC4(C)C .
4.58

If you can, please state the reported pIC50 value of Cc1coc2c3ccc4c(c3c3[nH]c(-c5ccccc5C(F)(F)F)nc3c12)CCCC4(C)C .
4.42

If you can, please state the reported pIC50 value of COc1cccc(-c2nc3c([nH]2)c2c4c(ccc2c2occ(C)c32)C(C)(C)CCC4)c1 .
4.55

If you can, please state the reported pIC50 value of Cc1coc2c1C(=O)C(=O)c1c-2ccc2c1CCCC2(C)C [TANSHINONE IIA] .
4.18

If you can, please state the reported pIC50 value of Cc1coc2c3ccc4c(c3c3[nH]c(-c5cccc([N+](=O)[O-])c5)nc3c12)CCCC4(C)C .
4.47

If you can, please state the reported pIC50 value of Cc1coc2c3ccc4c(c3c3[nH]c(-c5cccc(O)c5)nc3c12)CCCC4(C)C .
4.43

If you can, please state the reported pIC50 value of Cc1coc2c3ccc4c(c3c3[nH]c(-c5ccc([N+](=O)[O-])cc5)nc3c12)CCCC4(C)C .
4.51

If you can, please state the reported pIC50 value of Cc1coc2c3ccc4c(c3c3[nH]c(-c5cccc(C(F)(F)F)c5)nc3c12)CCCC4(C)C .
4.36

If you can, please state the reported pIC50 value of COc1ccccc1-c1nc2c([nH]1)c1c3c(ccc1c1occ(C)c21)C(C)(C)CCC3 .
3.90

---

System: L02
Measurement Protocol: Antiproliferative activity against human L02 cells after 72 hrs by MTT assay
Assay type: cell-based
Stated Conditions: L02, 72 h
Please respond with reported IC50 for every item in the list.
Your answer should be a plain number; it is taken to be in µM.

If you can, please state the reported IC50 value of COc1ccc(-c2nc3c([nH]2)c2c4c(ccc2c2occ(C)c32)C(C)(C)CCC4)cc1 .
84

If you can, please state the reported IC50 value of Cc1coc2c3ccc4c(c3c3[nH]c(-c5ccc(O)cc5)nc3c12)CCCC4(C)C .
49.1

If you can, please state the reported IC50 value of COc1ccccc1-c1nc2c([nH]1)c1c3c(ccc1c1occ(C)c21)C(C)(C)CCC3 .
86.8

If you can, please state the reported IC50 value of Cc1coc2c3ccc4c(c3c3[nH]c(-c5cccc(C(F)(F)F)c5)nc3c12)CCCC4(C)C .
54.5

If you can, please state the reported IC50 value of Cc1coc2c3ccc4c(c3c3[nH]c(-c5ccccc5O)nc3c12)CCCC4(C)C .
51.9

---

System: L02
Measurement Protocol: Antiproliferative activity against human L02 cells after 72 hrs by MTT assay
Format: cell-based
Stated Conditions: L02, 72 h
Readout Kind: pIC50
Schema: pIC50 number; meaning minus log10 of the concentration expressed in molar units.

Notebook: pull reported pIC50 for L02, entry Cc1coc2c3ccc4c(c3c3[nH]c(-c5ccccc5C(F)(F)F)nc3c12)CCCC4(C)C
4.03

Notebook: pull reported pIC50 for L02, entry Cc1coc2c1C(=O)C(=O)c1c-2ccc2c1CCCC2(C)C
4.11

Notebook: pull reported pIC50 for L02, entry Cc1coc2c3ccc4c(c3c3[nH]c(-c5cccc(O)c5)nc3c12)CCCC4(C)C
4.48

Notebook: pull reported pIC50 for L02, entry COc1cccc2c1C(=O)c1c(O)c3c(c(O)c1C2=O)C[C@@](O)(C(=O)CO)C[C@@H]3O[C@H]1C[C@H](N)[C@H](O)[C@H](C)O1
5.44

Notebook: pull reported pIC50 for L02, entry Cc1coc2c3ccc4c(c3c3[nH]c(-c5ccc(C(F)(F)F)cc5)nc3c12)CCCC4(C)C
4.51

---

Please respond with reported IC50 for every item in the list.
Tested on: HepG2
Measurement Protocol: Antiproliferative activity against human HepG2 cells after 72 hrs by MTT assay
Format: functional, cell-based
Stated Conditions: HepG2, 72 h
Your answer should be a plain number; it is taken to be in µM.

If you can, please state the reported IC50 value of COc1cccc2c1C(=O)c1c(O)c3c(c(O)c1C2=O)C[C@@](O)(C(=O)CO)C[C@@H]3O[C@H]1C[C@H](N)[C@H](O)[C@H](C)O1 .
4.3

If you can, please state the reported IC50 value of Cc1coc2c3ccc4c(c3c3[nH]c(-c5ccccc5[N+](=O)[O-])nc3c12)CCCC4(C)C .
24.8

If you can, please state the reported IC50 value of Cc1coc2c3ccc4c(c3c3[nH]c(-c5ccc(C(F)(F)F)cc5)nc3c12)CCCC4(C)C .
25.2

If you can, please state the reported IC50 value of Cc1coc2c3ccc4c(c3c3[nH]c(-c5ccc(O)cc5)nc3c12)CCCC4(C)C .
21.2

If you can, please state the reported IC50 value of COc1ccc(-c2nc3c([nH]2)c2c4c(ccc2c2occ(C)c32)C(C)(C)CCC4)cc1 .
13.9

---

Tested on: L02
Measurement Protocol: Antiproliferative activity against human L02 cells after 72 hrs by MTT assay
Type: cell-based
Stated Conditions: L02, 72 h
pIC50: −log10 of the molar value.
Please respond with reported pIC50 for every item in the list.

If you can, please state the reported pIC50 value of COc1cccc(-c2nc3c([nH]2)c2c4c(ccc2c2occ(C)c32)C(C)(C)CCC4)c1 .
< 3.52

If you can, please state the reported pIC50 value of Cc1coc2c3ccc4c(c3c3[nH]c(-c5cccc([N+](=O)[O-])c5)nc3c12)CCCC4(C)C .
< 3.52

If you can, please state the reported pIC50 value of Cc1coc2c3ccc4c(c3c3[nH]c(-c5ccccc5[N+](=O)[O-])nc3c12)CCCC4(C)C .
< 3.52
